- Assay explanation: Oral bioavailability in rat at 10 mg/kg
- Format: ADME, organism-based
- Condition info: in vivo
Observable: bioavailability (%)
One number for each entry, in %.

[
  {
    "Item smiles": "C[C@H]1CN(Cc2nc3ncccc3n2C)CC[C@H]1c1ccc(C(F)(F)F)cc1F",
    "Unit descriptor": "%",
    "bioavailability": 74
  }
]

Could you now consider this next molecule?
The molecule identified as Cn1c(CN2CCC(c3ccc(C(F)(F)F)cc3)CC2)nc2ncccc21 registered its bioavailability at 100

====

- Assay system: Metabotropic glutamate receptor 2 (Rattus norvegicus, UniProt P31421)
- Sequence (P31421 whole entry): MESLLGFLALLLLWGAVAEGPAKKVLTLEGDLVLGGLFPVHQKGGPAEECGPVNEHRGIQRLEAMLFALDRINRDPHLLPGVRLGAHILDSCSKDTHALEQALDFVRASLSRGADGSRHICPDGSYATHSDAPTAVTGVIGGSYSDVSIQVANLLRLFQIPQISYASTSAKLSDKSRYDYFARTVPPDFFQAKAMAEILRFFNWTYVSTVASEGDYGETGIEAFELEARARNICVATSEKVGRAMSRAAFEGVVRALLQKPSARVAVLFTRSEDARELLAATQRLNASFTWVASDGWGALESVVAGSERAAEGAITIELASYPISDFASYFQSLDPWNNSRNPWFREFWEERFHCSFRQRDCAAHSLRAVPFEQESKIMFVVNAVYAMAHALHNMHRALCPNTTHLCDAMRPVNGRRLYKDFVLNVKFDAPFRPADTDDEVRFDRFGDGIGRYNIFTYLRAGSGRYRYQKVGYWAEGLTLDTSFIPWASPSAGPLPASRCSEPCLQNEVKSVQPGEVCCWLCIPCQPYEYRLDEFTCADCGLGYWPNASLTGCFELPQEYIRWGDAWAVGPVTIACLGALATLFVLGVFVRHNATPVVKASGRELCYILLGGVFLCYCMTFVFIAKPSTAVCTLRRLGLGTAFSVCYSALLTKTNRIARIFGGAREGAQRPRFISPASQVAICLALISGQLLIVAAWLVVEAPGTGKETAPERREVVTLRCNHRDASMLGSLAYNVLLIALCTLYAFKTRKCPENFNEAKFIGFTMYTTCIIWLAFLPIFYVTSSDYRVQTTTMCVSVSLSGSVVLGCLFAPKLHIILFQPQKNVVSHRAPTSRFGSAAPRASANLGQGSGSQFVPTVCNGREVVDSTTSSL
- Assay explanation: Positive allosteric modulation of rat mGluR2 expressed in HEK293 cells co-expressing Galpha15 G protein assessed as increase in glutamate-induced intracellular calcium release by FLIPR assay
Please respond with reported pEC50 for every item in the list.
Answers are plain numbers, as −log10 of the molar value.

[
  {
    "Molecule": "C[C@H]1CN(Cc2nc3ncccc3n2C)CC[C@H]1c1ccc(C(F)(F)F)cc1 (racemic)",
    "Assay system": "Metabotropic glutamate receptor 2 (Rattus norvegicus, UniProt P31421)",
    "pEC50": 6.95
  }
]

Each of the following entries comes with a recorded value; kindly state pEC50 for each.
1. C[C@@H]1CN(Cc2nc3ncccc3n2C)CC[C@@H]1c1ccc(C(F)(F)F)cc1F
2. Cc1cc(C2CCN(Cc3nc4ccccc4n3C)CC2)nc(N2CCCC2)n1
3. C[C@H]1CN(Cc2nc3ncccc3n2C)CC[C@H]1c1ccc(C(F)(F)F)cc1F
4. Cn1c(CN2CCC(c3ccc(C(F)(F)F)cc3)CC2)nc2cccnc21

Result:
[6.00, 5.32, 8.05, 6.55]
